# System: A498 renal
# assay.procedure: NCI tumour cell line growth inhibition, 48 h
property.label: TGI

- compound: "CC(=O)O[C@@H]1CO[C@H]2O[C@H]3[C@@H](C(C=O)=C[C@H](O)[C@@H]4C5=C(C(C)C)CC[C@]5(C)CC[C@@]34C)[C@@]2(O)C1=O"
  reading: "1.96 µM"
- compound: "CCCCCCCCCCCCCCCc1cc(O)ccc1N"
  reading: "75.3 µM"
- compound: "CCCCCCCCCCCC(=O)OCC1OC(n2cc(F)c(=O)[nH]c2=O)C(N)C(OC(=O)CCCCCCCCCCC)C1O (stereo unspecified)"
  reading: "> 100 µM"
- compound: "O=c1cc(Cl)nc[nH]1"
  reading: "> 100 µM"

Please go through the list and note TGI for each compound.
1. O=C1NC2(CCCCC2)N=C2C(Cl)CCCC12Cl (stereo unspecified)
2. COc1cccc(/C=N\Nc2ccc([N+](=O)[O-])cn2)c1O
3. NC(=O)CCC(NCc1c2ccccc2[n+]([O-])c2ccccc12)C(=O)O (stereo unspecified)
4. O=C(OCCOCBr)c1ccccc1
5. O=C(/C=C/c1ccc(O)c(O)c1)OCCc1cccc2ccccc12
6. O=c1[nH]c2ccc(CC(=S)N3CCOCC3)cc2s1
7. COc1cc2c(c(OC)c1OC)-c1[nH]ncc1CC2

1. > 100 µM
2. 15.4 µM
3. > 100 µM
4. > 100 µM
5. 24.8 µM
6. > 100 µM
7. > 100 µM

====

Task for the reader: assign each of the following compounds its reported TGI.
# System: SF-268 CNS
# assay.procedure: NCI tumour cell line growth inhibition, 48 h
Give bare numbers, in µM.

Please go through the list and note TGI for each compound.
1. Cc1c(C(=O)/C=C/c2ccc(Cl)cc2)[n+](=O)c2ccccc2n1[O-]
2. COc1cc([C@@H]2c3cc4c(cc3[C@@H](NCCNCCO)[C@H]3COC(=O)[C@H]23)OCO4)cc(OC)c1O

28.6
51.8

====

# Test system: NCI-H460 lung
# assay.procedure: NCI tumour cell line growth inhibition, 48 h
property.label: TGI

Observe how each entry below is paired with its result.
- compound: "Cc1nc2c(o1)C(=O)c1ccccc1/C2=N/c1ccccn1"
  reading: "29.8 µM"
- compound: "Nc1nc(Cl)cc(NCC2(CO)CCC(Cc3ccccc3)C2)n1 (stereo unspecified)"
  reading: "> 100 µM"
- compound: "CCCN1C(=O)CCC2=C1CCc1c2ccc(Cl)c1Cl"
  reading: "> 100 µM"
- compound: "COc1ccc2c3c1OC1C(=O)C=CC4(O)C(C2)NCC[C@@]314 (stereo partly specified)"
  reading: "13.2 µM"
- compound: "O=C1OCC(C#Cc2ccccc2)=C1Cl"
  reading: "> 100 µM"

Quick one: TGI for O=P(O)(O)C(CSc1ccccc1)P(=O)(O)O ?
> 100 µM

====

Task for the reader: assign each of the following compounds its reported TGI.
# Test system: UO-31 renal
# assay.procedure: NCI tumour cell line growth inhibition, 48 h

Observe how each entry below is paired with its result.
- compound: "COc1cc(N=NN(C)C)c(C(C)c2c3cc(OC)c(OC)cc3cc[n+]2C)cc1OC (stereo unspecified)"
  test.target: "UO-31 renal"
  TGI: "> 100 µM"
- compound: "Cc1ccc2c(c1)NC(=O)CCSSCCC(=O)N2"
  test.target: "UO-31 renal"
  TGI: "> 100 µM"
- compound: "Nc1nc(Cl)cc(NCC2(CO)CCC(Cc3ccccc3)C2)n1 (stereo unspecified)"
  test.target: "UO-31 renal"
  TGI: "> 92.6 µM"

Please go through the list and note TGI for each compound.
1. Nc1cc(-c2ccccc2)ccc1O
2. O=C(Oc1ccccc1)c1cc2cc(CCl)ccc2oc1=O
3. CC(=O)OC1COC(S[As](C)C)C(OC(C)=O)C1OC(C)=O (stereo unspecified)

> 100 µM
68.1 µM
0.805 µM
